The reader will find reported IC50 values listed item by item below.
Biological target: Human CB1 Receptor-1 (hCB1) (Homo sapiens (Human))
Assay: hCB1 Gai cyclic AMP (cAMP) TR-FRET assay, antagonism of EC80 CP55940 with forskolin
Settings: hCB1 cells, 30 min pre-incubation

INSERT INTO assay_data (compound, reported_metric, result) VALUES
  ('C[C@H](CN/C(=N\S(=O)(=O)c1ccc(C(F)(F)F)cc1)N1C[C@H](c2ccccc2)C(c2ccc(F)cc2)=N1)S(N)(=O)=O (single isomer, unassigned)', 'IC50', '< 100 nM'),
  ('C#Cc1ccc(S(=O)(=O)N=C(NCCS(N)(=O)=O)N2C[C@H](c3ccccc3)C(c3ccc(F)cc3)=N2)cc1', 'IC50', '100 to 500 nM'),
  ('CC(CN/C(=N\S(=O)(=O)c1ccc(Cl)cc1)N1C[C@H](c2ccccc2)C(c2ccc(Cl)cc2)=N1)NS(N)(=O)=O (some centres unmarked)', 'IC50', '100 to 500 nM'),
  ('NS(=O)(=O)[C@H]1C[C@@H](N/C(=N/S(=O)(=O)c2ccc(Cl)cc2)N2C[C@H](c3ccccc3)C(c3ccc(Cl)cc3)=N2)C1 (single isomer, unassigned)', 'IC50', '100 to 500 nM');

Proceeding to the next compound to report its IC50.
C[C@@H](CN/C(=N\S(=O)(=O)c1ccc(C(F)(F)F)cc1)N1C[C@H](c2ccccc2)C(c2ccc(F)cc2)=N1)S(N)(=O)=O (single isomer, unassigned) has a reported IC50 of < 100 nM

###

Target: Human CB1 Receptor-1 (hCB1) (Homo sapiens (Human), UniProt P21554)
Sequence (P21554 whole entry): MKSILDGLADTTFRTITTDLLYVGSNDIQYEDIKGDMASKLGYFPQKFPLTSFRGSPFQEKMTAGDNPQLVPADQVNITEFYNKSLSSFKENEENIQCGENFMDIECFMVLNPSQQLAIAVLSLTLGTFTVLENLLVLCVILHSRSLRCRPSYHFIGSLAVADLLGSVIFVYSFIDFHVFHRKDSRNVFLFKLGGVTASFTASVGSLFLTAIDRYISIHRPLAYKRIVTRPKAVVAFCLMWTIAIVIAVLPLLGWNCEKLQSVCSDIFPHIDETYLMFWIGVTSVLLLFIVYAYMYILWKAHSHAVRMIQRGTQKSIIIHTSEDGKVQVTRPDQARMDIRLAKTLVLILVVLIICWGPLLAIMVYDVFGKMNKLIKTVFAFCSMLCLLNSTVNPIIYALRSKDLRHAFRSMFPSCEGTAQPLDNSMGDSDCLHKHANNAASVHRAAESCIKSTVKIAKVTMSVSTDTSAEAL
Assay: hCB1 Gai cyclic AMP (cAMP) TR-FRET assay, antagonism of EC80 CP55940 with forskolin
Format: cell-based
Conditions: hCB1 cells, 30 min pre-incubation
Description: Example 3. Biochemical Methods Human CB1 Receptor-1 (hCB1) and Human CB1 Receptor-1b (hCBib) hCB1/hCB1 b Gai Cyclic AMP (cAMP) Assays: Cells were seeded in a 384-well plate at an appropriate density from frozen cells. […] The plate was then incubated at rt for 30 minutes before reading fluorescent emissions at 620 nm and 665 with excitation at 314 nm on FlexStation III (Molecular Devices). […]
The reader will find reported IC50 values listed item by item below.

Worked examples follow.
INSERT INTO assay_data (molecule, result) VALUES
  ('C[C@@H](CN/C(=N\S(=O)(=O)c1ccc(F)cc1)N1C[C@H](c2ccccc2)C(c2ccc(Cl)cc2)=N1)S(N)(=O)=O', '< 0.1 µM'),
  ('CN(CCNC(=NS(=O)(=O)c1ccc(Cl)cc1)N1C[C@H](c2ccccc2)C(c2ccc(Cl)cc2)=N1)S(N)(=O)=O', '0.1 to 0.5 µM');

C#Cc1ccc(S(=O)(=O)N=C(NCCS(N)(=O)=O)N2C[C@H](c3ccccc3)C(c3ccc(Cl)cc3)=N2)cc1 has a reported IC50 of < 0.1 µM

NS(=O)(=O)NC1(CN/C(=N\S(=O)(=O)c2ccc(C(F)(F)F)cc2)N2C[C@H](c3ccccc3)C(c3ccc(Cl)cc3)=N2)CC1 has a reported IC50 of 0.1 to 0.5 µM

###

Target: Human CB1 Receptor-1b (hCB1b) (Homo sapiens (Human), UniProt P21554)
Sequence (P21554 other isoform, or with tags, fused parts or gaps): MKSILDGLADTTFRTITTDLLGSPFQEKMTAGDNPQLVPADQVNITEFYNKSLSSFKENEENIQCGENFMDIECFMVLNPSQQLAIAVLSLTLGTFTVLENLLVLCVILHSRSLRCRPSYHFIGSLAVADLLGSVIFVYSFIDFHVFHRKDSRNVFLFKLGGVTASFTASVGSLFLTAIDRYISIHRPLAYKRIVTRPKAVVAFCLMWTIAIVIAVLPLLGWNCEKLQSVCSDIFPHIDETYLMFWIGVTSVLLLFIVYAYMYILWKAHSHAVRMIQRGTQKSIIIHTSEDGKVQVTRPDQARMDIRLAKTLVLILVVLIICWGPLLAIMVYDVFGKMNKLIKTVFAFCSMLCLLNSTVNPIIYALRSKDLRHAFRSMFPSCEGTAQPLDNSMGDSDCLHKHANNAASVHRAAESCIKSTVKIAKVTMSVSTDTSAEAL
Assay: hCB1b Gai cyclic AMP (cAMP) TR-FRET assay, antagonism of EC80 CP55940 with forskolin
Settings: hCB1b cells, 30 min pre-incubation, read-out: CB1b IC50
pIC50: −log10 of the molar value.
The reader will find reported pIC50 values listed item by item below.

Worked examples follow.
INSERT INTO measurements (molecule, result) VALUES
  ('NS(=O)(=O)N[C@H]1C[C@@H](N/C(=N\S(=O)(=O)c2ccc(C(F)(F)F)cc2)N2C[C@H](c3ccccc3)C(c3ccc(Cl)cc3)=N2)C1 (single isomer, unassigned) [Compound 245]', '> 7.00'),
  ('C[C@@H](CN/C(=N\S(=O)(=O)c1ccc(F)cc1)N1C[C@H](c2ccccc2)C(c2ccc(Cl)cc2)=N1)S(N)(=O)=O [Compound 13]', '> 7.00');

Proceeding to the next molecule to report its pIC50.
C[C@H](CN/C(=N\S(=O)(=O)c1ccc(F)cc1)N1C[C@H](c2ccccc2)C(c2ccc(F)cc2)=N1)S(N)(=O)=O [Compound 53] has a reported pIC50 of > 7.00

###

The reader will find reported IC50 values listed item by item below.
Target: Human CB1 Receptor-1b (hCB1b) (Homo sapiens (Human))
Test: hCB1b Gai cyclic AMP (cAMP) TR-FRET assay, antagonism of EC80 CP55940 with forskolin
Details: hCB1b cells, 30 min pre-incubation, read-out: CB1b IC50

Worked examples follow.
INSERT INTO assay_data (molecule, result) VALUES
  ('NS(=O)(=O)[C@H]1CC[C@@H](N/C(=N/S(=O)(=O)c2ccc(Cl)cc2)N2C[C@H](c3ccccc3)C(c3ccc(F)cc3)=N2)CC1 (single isomer, unassigned)', '> 500 nM'),
  ('C[C@@H](CN/C(=N\S(=O)(=O)c1ccc(Cl)cc1)N1C[C@H](c2ccccc2)C(c2ccc(Cl)cc2)=N1)S(N)(=O)=O', '< 100 nM');

Proceeding to the next molecule to report its IC50.
NS(=O)(=O)[C@H]1CCN(/C(=N/S(=O)(=O)c2ccc(Cl)cc2)N2C[C@H](c3ccccc3)C(c3ccc(Cl)cc3)=N2)C1 (single isomer, unassigned) has a reported IC50 of > 500 nM

###

Molecular target: Human CB1 Receptor-1b (hCB1b) (Homo sapiens (Human))
Experiment: hCB1b Gai cyclic AMP (cAMP) TR-FRET assay, antagonism of EC80 CP55940 with forskolin
Settings: hCB1b cells, 30 min pre-incubation, read-out: CB1b IC50
pIC50: −log10 of the molar value.
Reported Metric: pIC50

Worked examples follow.
INSERT INTO measurements (compound, reported_metric, result) VALUES
  ('C[C@H](CN/C(=N\S(=O)(=O)c1ccc(C(F)(F)F)cc1)N1C[C@H](c2ccccc2)C(c2ccc(Cl)cc2)=N1)S(N)(=O)=O', 'pIC50', '< 6.30'),
  ('Cn1ncc(S(=O)(=O)N=C(NCCS(N)(=O)=O)N2C[C@H](c3ccccc3)C(c3ccc(Cl)cc3)=N2)n1', 'pIC50', '6.30 to 7.00'),
  ('C[C@@H](CN/C(=N\S(=O)(=O)c1ccc(F)cc1)N1C[C@H](c2ccccc2)C(c2ccc(F)cc2)=N1)S(N)(=O)=O', 'pIC50', '> 7.00'),
  ('NS(=O)(=O)CCN/C(=N\S(=O)(=O)c1ccc(F)cc1)N1C[C@H](c2ccccc2)C(c2ccc(Cl)cc2)=N1', 'pIC50', '> 7.00'),
  ('NS(=O)(=O)O[C@H]1C[C@@H](N/C(=N\S(=O)(=O)c2ccc(Cl)cc2)N2C[C@@H](c3ccccc3)C(c3ccc(Cl)cc3)=N2)C1 (single isomer, unassigned)', 'pIC50', '> 7.00');

Proceeding to the next compound to report its pIC50.
Measured pIC50 (Human CB1 Receptor-1b (hCB1b) (Homo sapiens (Human))), entry NS(=O)(=O)[C@H]1CC[C@@H](N/C(=N/S(=O)(=O)c2ccc(Cl)cc2)N2C[C@H](c3ccccc3)C(c3ccc(Cl)cc3)=N2)C1 (single isomer, unassigned) : 6.30 to 7.00

###

Biological target: Human CB1 Receptor-1 (hCB1) (Homo sapiens (Human))
Assay: hCB1 Gai cyclic AMP (cAMP) TR-FRET assay, antagonism of EC80 CP55940 with forskolin
Details: hCB1 cells, 30 min pre-incubation
Reported Metric: IC50

Worked examples follow.
INSERT INTO measurements (molecule, tgt, result) VALUES
  ('NS(=O)(=O)CCN/C(=N\S(=O)(=O)c1ccc(F)cc1)N1C[C@H](c2ccccc2)C(c2ccc(Cl)cc2)=N1', 'Human CB1 Receptor-1 (hCB1) (Homo sapiens (Human))', '< 100 nM'),
  ('NS(=O)(=O)O[C@H]1C[C@@H](N/C(=N\S(=O)(=O)c2ccc(C(F)(F)F)cc2)N2C[C@H](c3ccccc3)C(c3ccc(Cl)cc3)=N2)C1', 'Human CB1 Receptor-1 (hCB1) (Homo sapiens (Human))', '100 to 500 nM'),
  ('NS(=O)(=O)[C@H]1CC[C@@H](N/C(=N/S(=O)(=O)c2ccc(Cl)cc2)N2C[C@H](c3ccccc3)C(c3ccc(Cl)cc3)=N2)CC1 (single isomer, unassigned)', 'Human CB1 Receptor-1 (hCB1) (Homo sapiens (Human))', '> 500 nM'),
  ('CN(CCS(N)(=O)=O)/C(=N/S(=O)(=O)c1ccc(Cl)cc1)N1C[C@H](c2ccccc2)C(c2ccc(Cl)cc2)=N1', 'Human CB1 Receptor-1 (hCB1) (Homo sapiens (Human))', '> 500 nM'),
  ('Cn1ncc(S(=O)(=O)N=C(NCCS(N)(=O)=O)N2C[C@H](c3ccccc3)C(c3ccc(Cl)cc3)=N2)n1', 'Human CB1 Receptor-1 (hCB1) (Homo sapiens (Human))', '100 to 500 nM');

Measured IC50 (Human CB1 Receptor-1 (hCB1) (Homo sapiens (Human))), entry NS(=O)(=O)CCNC(=NS(=O)(=O)c1cccnc1)N1C[C@H](c2ccccc2)C(c2ccc(F)cc2)=N1 : > 500 nM
